Below, each entry is listed alongside its reported normalised response.
Test system: BT-549
procedure-details: normalised response (% of control), CellTiter-Glo; higher = more viable cells (100 = DMSO, 0 = benzethonium chloride kill control)
conditions-used: incubation time: 72 h
measurement-label: normalised response (%)

                                   compound    measurement_label  value_measured
0  CCC(C)(C)C(=O)O[C@H]1C[C@@H](C)C=C2C=C[C@H](C)[C@H](CC[C@@H]3C[C@@H](O)CC(=O)O3)[C@H]21 [Simvastatin] (100 nM)  normalised response            94.5
1  CN(C)/N=N/c1[nH]cnc1C(N)=O [Dacarbazine] (100 nM)  normalised response             115
2  CS(=O)(=O)c1ccc(C2=C(c3ccccc3)C(=O)OC2)cc1 [Rofecoxib] (100 nM)  normalised response             106
3  N#CCNC(=O)c1ccc(-c2ccnc(Nc3ccc(N4CCOCC4)cc3)n2)cc1 [Momelotinib] (100 nM)  normalised response             102
4  Cc1ccc(C(=O)Nc2ccc(CN3CCN(C)CC3)c(C(F)(F)F)c2)cc1C#Cc1cnc2cccnn12 [Ponatinib] (10 nM)  normalised response             104
5  CN(N=O)C(=O)N[C@@H](C=O)[C@@H](O)[C@H](O)[C@H](O)CO [Streptozocin] (100 nM)  normalised response             100
6  C=C(c1ccc(C(=O)O)cc1)c1cc2c(cc1C)C(C)(C)CCC2(C)C [Bexarotene] (100 nM)  normalised response             105
7  Cn1c(CCCC(=O)O)nc2cc(N(CCCl)CCCl)ccc21 [Bendamustine] (100 nM)  normalised response             106
8  Cc1ccc(-n2nc(C(C)(C)C)cc2NC(=O)Nc2ccc(OCCN3CCOCC3)c3ccccc23)cc1 [Doramapimod] (100 nM)  normalised response             106
9  C[C@@H](Oc1cc(-c2cnn(C3CCNCC3)c2)cnc1N)c1c(Cl)ccc(F)c1Cl [Crizotinib] (10 nM)  normalised response            96.7

Reference source for all entries: the supplement of paper PMC4862054
